# System: Escherichia coli, 10909
# Test Summary: MIC, agar dilution
# Type: cell-based
# Test Settings: K-10 agar, 10^4 CFU, 37°C, 18 hours
Counter-ions that a name gives are not always drawn.
Assignment: determine reported MIC for the given molecules.
One number for each entry, in µg/mL.

{"columns": ["Molecule", "Target Or Test System", "MIC [µg/mL]"],
 "data": [
  ["COC1(NC(=O)Cc2ccccc2)C(=O)N(S(=O)(=O)O)C1C (stereo not drawn) [Example 29, potassium salt]", "Escherichia coli, 10909", 100]
]}

I have 4 molecules here; please give me MIC for each one.
1. C[C@@H]1[C@H](NC(=O)[C@H](NC(=O)N2CCN(N=Cc3ccco3)C2=O)c2ccccc2)C(=O)N1S(=O)(=O)O (relative stereo) [Example 21, potassium salt]
2. CCN1CCN(C(=O)N[C@@H](C(=O)N[C@@H]2C(=O)N(S(=O)(=O)O)[C@@H]2C)c2ccccc2)C(=O)C1=O (relative stereo) [Example 22, potassium salt]
3. CO/N=C(\C(=O)NC1C(=O)N(S(=O)(=O)O)C1(C)C)c1csc(N)n1 (racemic) [Example 25, potassium salt]
4. CC1C(NC(=O)Cc2ccccc2)C(=O)N1S(=O)(=O)O (racemic) [Example 4, potassium salt]

**Result**
1. 0.2
2. 0.4
3. 25
4. 50

Batch: MIC for all items listed.
1. C[C@H]1[C@H](NC(=O)/C(=N\OC(C)(C)C(=O)OCc2ccc([N+](=O)[O-])cc2)c2csc(N)n2)C(=O)N1S(=O)(=O)O [Example 15, potassium salt]
2. CCN1CCN(C(=O)NC(C(=O)NC2C(=O)N(S(=O)(=O)O)C2C)c2ccccc2)C(=O)C1=O (stereo not drawn) [Example 12, potassium salt]

**Result**
1. 6.3
2. 0.1

Need MIC for each of these molecules.
1. CC1C(NC(=O)C(NC(=O)C(N)=O)c2cccs2)C(=O)N1S(=O)(=O)O (racemic) [Example 14, potassium salt]
2. C[C@H]1[C@H](NC(=O)C(=O)c2csc(N)n2)C(=O)N1S(=O)(=O)O [Example 27, potassium salt]
3. CON=C(C(=O)NC1C(=O)N(S(=O)(=O)O)C1C)c1csc(N)n1 (racemic) [Example 7, potassium salt]
4. C[C@H]1[C@H](NC(=O)Cc2ccccc2)C(=O)N1S(=O)(=O)O [Example 3, potassium salt]

**Result**
1: 0.8; 2: 1.6; 3: 0.1; 4: 25

Entry source: patent EP0187355A1
